- SUBJECT OF TEST: Muscarinic acetylcholine receptor M2 (Homo sapiens, UniProt P08172)
- Sequence (P08172 whole entry): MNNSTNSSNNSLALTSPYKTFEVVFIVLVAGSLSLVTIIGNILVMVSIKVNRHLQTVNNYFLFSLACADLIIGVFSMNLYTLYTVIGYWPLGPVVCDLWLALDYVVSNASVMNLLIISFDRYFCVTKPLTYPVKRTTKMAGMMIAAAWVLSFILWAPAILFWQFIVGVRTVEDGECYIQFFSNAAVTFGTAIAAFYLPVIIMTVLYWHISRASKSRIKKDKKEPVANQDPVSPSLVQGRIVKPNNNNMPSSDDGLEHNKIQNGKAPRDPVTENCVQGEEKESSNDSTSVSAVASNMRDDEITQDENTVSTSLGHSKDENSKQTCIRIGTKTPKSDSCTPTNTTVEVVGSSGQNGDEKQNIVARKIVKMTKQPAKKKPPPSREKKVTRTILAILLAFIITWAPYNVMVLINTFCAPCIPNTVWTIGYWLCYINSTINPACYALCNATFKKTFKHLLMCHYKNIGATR
- EXPERIMENT SUMMARY: Inhibitory activity against [3H]quinuclidinyl Benzilate binding to Muscarinic acetylcholine receptor M2 in the absence of GTP
QUANTITY NAME: IC50 (nM)
Answers are plain numbers, in nM.

| COMPOUND | SUBJECT OF TEST | QUANTITY NAME | REPORTED VALUE |
| --- | --- | --- | --- |
| CC(=O)OC1CC2CCCC1N2 (configuration not stated) | Muscarinic acetylcholine receptor M2 (Homo sapiens, UniProt P08172) | IC50 | 17 |

stdin: Need IC50, item CC(=O)OC(C)C[N+](C)(C)C (configuration not stated)
stdout: 380

---

- SUBJECT OF TEST: Muscarinic acetylcholine receptor M1 (Rattus norvegicus)
- Sequence (P08482 whole entry): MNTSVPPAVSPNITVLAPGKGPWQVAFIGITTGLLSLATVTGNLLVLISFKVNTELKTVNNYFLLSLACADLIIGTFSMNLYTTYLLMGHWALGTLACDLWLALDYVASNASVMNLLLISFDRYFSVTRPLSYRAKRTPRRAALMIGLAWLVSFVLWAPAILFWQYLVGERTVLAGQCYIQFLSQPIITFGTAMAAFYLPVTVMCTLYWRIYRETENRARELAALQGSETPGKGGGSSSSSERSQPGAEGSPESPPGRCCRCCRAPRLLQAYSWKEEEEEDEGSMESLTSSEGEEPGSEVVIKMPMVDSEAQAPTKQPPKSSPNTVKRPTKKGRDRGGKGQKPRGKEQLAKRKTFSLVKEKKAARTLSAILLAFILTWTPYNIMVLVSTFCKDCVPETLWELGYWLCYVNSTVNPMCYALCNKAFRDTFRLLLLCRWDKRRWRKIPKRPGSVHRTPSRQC
- EXPERIMENT SUMMARY: Inhibition of binding of [3H]quinuclidinyl benzilate to Muscarinic acetylcholine receptor M1 in rat cerebral cortical membranes at 100 uM concentration
- Format: cell membranes, Membrane
Please respond with reported pKi for every item in the list.
One number for each entry, as −log10 of the molar value.

| COMPOUND | pKi |
| --- | --- |
| CC(=O)OC1CC2CCCC1N2 (configuration not stated) | 4.66 |

Turning to the following compound.
stdin: # get_value(readout='pKi', item= COC(=O)C1=CCC2CCC1N2C (configuration not stated) )
stdout: 4.60

---

- SUBJECT OF TEST: Muscarinic acetylcholine receptor M4 (Homo sapiens)
- EXPERIMENT SUMMARY: Inhibition of binding of [3H]quinuclidinyl benzilate to Muscarinic acetylcholine receptor M4 in membranes of transfected CHO cells
So I've got a bunch of molecules here, and I need their Ki values.
Answers are plain numbers, in µM.

Sample answers from the record:
| MOLECULE | REPORTED VALUE |
| --- | --- |
| C[C@@H]1O[C@H](C[N+](C)(C)C)C[C@H]1O [MUSCARINE] | 1.4 |
| CC(=O)OC1CC2CCCC1N2 (stereo not given) | 0.033 |
| CC(=O)OC(C)C[N+](C)(C)C (stereo not given) [METHACHOLINE] | 1.6 |
| CC(=O)OC1CC2CCCC1N2C (stereo not given) | 8.3 |

Turning now to a further molecule:
stdin: Which measured Ki value corresponds to COC(=O)C1CC2CCCC1N2 (stereo not given) ?
stdout: 7.9

---

- SUBJECT OF TEST: Muscarinic acetylcholine receptor M1 (Rattus norvegicus)
- EXPERIMENT SUMMARY: Percentage inhibition of binding of [3H]quinuclidinyl benzilate to muscarinic acetylcholine receptor M1 in rat cerebral cortical membranes
- Format: cell membranes
- Set-up: concentration or dose not given beside the values
- RUN CONDITIONS: Membrane, concentration not given here
QUANTITY NAME: inhibition (%)
One number for each entry, in %.

| COMPOUND | QUANTITY NAME | REPORTED VALUE |
| --- | --- | --- |
| COC(=O)C1CC2NC1CCC2=O (stereo not drawn) | inhibition | 0 |
| COC(=O)[C@H]1CC2NC1CC[C@@H]2OC(C)=O (stereo partly drawn) | inhibition | 1 |

Next item in the queue.
stdin: Reported inhibition for COC(=O)C1CC2NC1CCC21SCCS1 (stereo not drawn) : what is it?
stdout: 3
